biological target: SARS-CoV-2 3CL protease (Severe acute respiratory syndrome coronavirus 2, UniProt P0DTD1); experiment: Inhibitory activity test against SARS-CoV-2 3CL proteases; format: biochemical; conditions: read-out: IC50 (50% SARS-CoV-2 3CL protease inhibitory concentration)
recorded.endpoint: IC50

{"columns": ["molecule", "recorded.measurement"],
 "data": [
  ["N#Cc1ccc(Cl)c(-c2cc3c(c4c2CCO4)c(=O)n(Cc2ncccn2)c(=O)n3Cc2cc(F)c(F)c(F)c2)c1", "< 100 nM"],
  ["COCc1ccc(Cl)c(-c2cc(OC)c3c(=O)n(-c4cncc(C)c4)c(=O)n(Cc4ccc(F)c(C#N)c4)c3c2)c1", "20 nM"],
  ["COc1cc(-c2cc(C(O)C(F)(F)F)ccc2Cl)cc2c1c(=O)n(Cc1ncn(C)n1)c(=O)n2Cc1cc(F)c(F)c(F)c1 (stereo not shown)", "< 100 nM"],
  ["Cn1cnc(Cn2c(=O)c3c(cc(-c4cc(C#N)ccc4Cl)n4nnnc34)n(Cc3cc(F)c(F)c(F)c3)c2=O)n1", "< 100 nM"],
  ["[2H]C([2H])([2H])O[C@@H]1CCN(c2cc3c(c(OC)n2)c(=O)n(-c2cnc4cc(F)ccn24)c(=O)n3-c2ccc(F)c(Cl)c2)C1", "< 100 nM"],
  ["Cc1cncc(-n2c(=O)c3c(n(Cc4cc(F)c(F)c(F)c4)c2=O)CN(c2cc(C#N)ccc2Cl)CC3)c1", "100 to 1000 nM"],
  ["COc1cc(-c2cc3cn[nH]c3cc2Cl)cc2c1c(=O)n(-c1cncc(C)c1)c(=O)n2Cc1ccc(F)c(C#N)c1", "< 100 nM"],
  ["COCCN(C)c1cc2c(c(OC)n1)c(=O)n(-c1cnc3cc(F)ccn13)c(=O)n2-c1ccc(F)c(Cl)c1", "14 nM"],
  ["Cn1cnc(Cn2c(=O)c3c(F)cc(-c4nc5c(cc4Cl)NC(=O)C54CC4)cc3n(Cc3cc(F)c(F)c(F)c3)c2=O)n1", "21 nM"],
  ["CNC(=O)c1ccc(Cl)c(-c2cc(OC)c3c(=O)n(Cc4ncn(C)n4)c(=O)n(Cc4cc(F)c(F)c(F)c4)c3c2)c1", "33 nM"],
  ["Cn1cnc(Cn2c(=O)c3c(cc(-c4cc(C#N)ccc4Cl)n4ccnc34)n(Cc3cc(F)c(F)c(F)c3)c2=O)n1", "3 nM"],
  ["Cn1cnc(Cn2c(=O)c3c(F)c(Cl)c(-c4cc(C#N)ccc4Cl)cc3n(Cc3cc(F)c(F)c(Cl)c3)c2=O)n1", "< 100 nM"],
  ["COc1cc(-c2cc(C#N)ccc2Cl)cc2c1c(=O)n(Cc1ncn(C)n1)c(=O)n2Cc1cc(F)c(F)c(F)c1", "25 nM"],
  ["Cn1c(-c2cc(C#N)ccc2Cl)cc2c(c1=O)c(=O)n(-c1cnc3ccc(Cl)cn13)c(=O)n2Cc1cc(F)c(F)c(F)c1", "4.3 nM"],
  ["COc1cc(-c2cc(CC(=O)NCCN(C)C)ccc2Cl)cc2c1c(=O)n(-c1cncc(Cl)c1)c(=O)n2Cc1cc(F)c(F)c(F)c1", "< 100 nM"],
  ["COc1cc(-c2cc3c(cc2Cl)NC(=O)C3)cc2c1c(=O)n(Cc1ncn(C)n1)c(=O)n2Cc1cc(F)c(F)cc1F", "< 100 nM"],
  ["COc1cc(-c2c(Cl)ccc3c(=O)[nH]ccc23)cc2c1c(=O)n(Cc1ncn(C)n1)c(=O)n2Cc1cc(F)c(F)c(F)c1", "15 nM"],
  ["COc1nc(N2CC[C@@H](F)C2)cc2c1c(=O)n(Cc1ncn(C)n1)c(=O)n2Cc1cc(F)c(F)c(Cl)c1", "< 100 nM"],
  ["Cc1cncc(-n2c(=O)c3c(F)cc(-c4cc(C#N)ccc4Cl)cc3n(Cc3ccc(F)c(C#N)c3)c2=O)c1", "< 100 nM"],
  ["Cn1cnc(Cn2c(=O)c3c4nccnc4c(NC4CC5CC5C4)cc3n(Cc3cc(F)c(F)c(Cl)c3)c2=O)n1 (stereo not shown)", "< 100 nM"],
  ["COc1cc(-c2cc(CO)ccc2Cl)cc2c1c(=O)n(-c1cncc(C)c1)c(=O)n2Cc1cc(F)c(F)c(F)c1", "8.5 nM"],
  ["COc1nc(N2C[C@@H]3C[C@H]2CO3)cc2c1c(=O)n(-c1cnc3cc(F)ccn13)c(=O)n2-c1ccc(F)c(C(F)F)c1", "< 100 nM"],
  ["O=C1Cc2cc(-c3cc(F)c4c(=O)n(-c5cncc(Cl)c5)c(=O)n(Cc5cc(Cl)c(F)cn5)c4c3)c(Cl)cc2N1", "< 100 nM"],
  ["[2H]C([2H])([2H])N1CCc2c(ccc(Cl)c2-c2cc(OC)c3c(=O)n(Cc4ncn(C)n4)c(=O)n(Cc4cc(F)c(F)c(F)c4)c3c2)C1=O", "< 100 nM"],
  ["[2H]C([2H])([2H])O[C@@H]1CCN(c2cc3c(c(OC)n2)c(=O)n(-c2cncc(C(F)F)c2)c(=O)n3-c2ccc(F)c(Cl)c2)C1", "< 100 nM"]
]}
